System: ACHN
Experiment: NCI tumour cell line growth inhibition, 48 h
The source made the active and inactive calls. No stated cut-off is given here; in the data, active = GI50 up to about 1.1 µM and inactive = higher.
Hi there, use one of these labels in your reply, thanks! active, inactive

Please review the entries below; each comes with its answer.
O=C(O)CCSC(=O)Nc1cccc2ccccc12	inactive
O=C(CN1CCOCC1)c1ccc2c(c1)oc(=O)n2CCN1CCCC1	inactive
Cc1nc(O)c(O)c(CN2CCCCC2)n1	inactive

Name the outcome recorded for O=C(O)c1cc2ccccc2c(O)c1O in the assay.
inactive

Name the outcome recorded for N=C(N)N/N=C/c1c(-c2ccc([N+](=O)[O-])cc2)nc2sc(Cl)cn12 in the assay.
inactive

Name the outcome recorded for O=[N+]([O-])c1ccc(N=P(c2ccccc2)(c2ccccc2)c2ccccc2)n2nnnc12 in the assay.
inactive

Name the outcome recorded for CSc1ccc(/C=C2\N=C(c3ccccc3)N(c3nc4cc(Cl)c(F)cc4s3)C2=O)cc1 in the assay.
inactive

Name the outcome recorded for Cc1ccc(S(=O)(=O)NC(=O)C#CCOC2CCCCO2)cc1 (centres undefined) in the assay.
inactive

Name the outcome recorded for COc1ccc(/C=C\c2cc(OC)c(OC(C)=O)c(OC)c2)cc1 in the assay.
inactive

Name the outcome recorded for CC1=C(C(=O)NCc2ccccc2)C(/C=C/c2ccccc2)C(C(=O)NCc2ccccc2)=C(C)N1 in the assay.
inactive

----------
Test system: HL-60
Assay: NCI tumour cell line growth inhibition, 48 h
Active and inactive are the calls of the source. Rule as the data show it: active = GI50 up to about 1.1 µM and inactive = higher.
Hi there, use one of these labels in your reply, thanks! yes = active, no = inactive

Please review the entries below; each comes with its answer.
CCO/C=C\C12CCCC1NC(c1ccccc1)(c1ccccc1)O2 (centres undefined)	no
O=C(/C=C/c1ccc(O)cc1)c1cc(O)cc(O)c1	no
Cc1ccc(S(=O)(=O)NC(=O)C#CCOC2CCCCO2)cc1 (centres undefined)	no
NNC(=O)/C(=C/c1ccc(Cl)c(Cl)c1)NC(=O)c1ccccc1	no
COc1cccc(-c2cc(O)c3c(C)ccnc3n2)c1	yes
COc1ccc(C2=NN(C(=O)COc3ccc(Cl)cc3)C(O)(c3ccc(Cl)cc3)C2)cc1 (centres undefined)	no
O=C(CN1CCOCC1)c1ccc2c(c1)oc(=O)n2CCN1CCCC1	no
O=c1c2ccc(Cl)cc2oc2c(CNc3ccc(S(=O)(=O)Nc4ncccn4)cc3)cccc12	no

# evaluate next
Name the outcome recorded for O=C1/C(=C\c2ccc([N+](=O)[O-])cc2)CS(=O)(=O)C/C1=C/c1ccc([N+](=O)[O-])cc1 in the assay.
yes

----------
Exercise: for every item that follows, state its recorded GI50.
System: SF-539
Assay: NCI tumour cell line growth inhibition, 48 h
Activity calls are given as the source filed them. Rule as the data show it: active = GI50 up to about 1.1 µM and inactive = higher.

Solved entries:
NCCCc1c(-c2ccccc2)[nH]c(N)nc1=O	> 100 µM (inactive)
Cc1cc(Cl)ccc1NC(=O)CCCC(=O)C1C/C(=N/O)CC/C1=N\O (stereo unspecified)	> 100 µM (inactive)
O=C(O)CSCc1cc2c(O)c(c1)Cc1cc(CSCC(=O)O)cc(c1O)Cc1cc(CSCC(=O)O)cc(c1O)Cc1cc(CSCC(=O)O)cc(c1O)C2	> 100 µM (inactive)
C=C1c2[nH]c3c([N+](=O)[O-])c(OC)ccc3c2CCN1C(C)=O	> 100 µM (inactive)
COC1=CC(=O)C2C(C1=O)C(c1ccc(Cl)cc1)[C@@H]2C (stereo partly specified)	22.8 µM (inactive)
COc1ccc2nc3cc(Cl)ccc3c(NCCC[N+](C)(C)CCCCCCCCCCCCCCCC[N+](C)(C)CCCNc3c4ccc(Cl)cc4nc4ccc(OC)cc34)c2c1	2.25 µM (inactive)

For each entry beneath this line, provide reported GI50.
1. CCOC(=O)c1c(-c2ccccc2)c(C)cn1C
2. C=C(c1ccccc1N)[C@@]1(O)C[C@H](/C(=C\C)CO)C[C@@H]1NCc1ccccc1
3. O=c1[nH]c2nc3ccccc3c(=O)n2/c1=C/c1cccs1
4. O=C(NNC(=S)Nc1ccc(Cl)cc1)C12CC3CC(CC(C3)C1)C2
5. OC12CC3c4ccccc4NC3C3Oc4cccc5c4C31CCN(CC1CC1)C2C5 (stereo unspecified)

1. > 10 µM (inactive)
2. 16.3 µM (inactive)
3. > 100 µM (inactive)
4. 3.93 µM (inactive)
5. 26.5 µM (inactive)
